Hello, the source for this data is patent US20240002495A1, in case you need it.

- target.desc: T1, recombinant human IL-33 protein (residues 112 to 270) (ILC0701, ATGen Co. Ltd) (human, UniProt O95760 112-270)
- T1 construct: bought protein
- T1 sequence: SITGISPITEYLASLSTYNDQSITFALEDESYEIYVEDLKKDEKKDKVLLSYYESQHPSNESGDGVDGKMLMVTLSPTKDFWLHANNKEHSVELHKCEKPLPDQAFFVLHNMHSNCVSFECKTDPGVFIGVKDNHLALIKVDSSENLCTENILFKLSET
- assay.protocol: SPR (Biacore T200), human IL-33 (ILC0701) immobilized on CM5, Calibration Free Concentration Analysis of the preserved antibody against a control-preserved sample
Here, each record is paired with measured % Active IgG (antigen binding activity after preservation at 40 C for 4 W) data.
A number alone suffices; assume %.

Recorded results for 2 binders are shown here.
{"binder": "A26-1F02 (IgG) (antibody, V domains shown, tested as neutral-purified and as alkaline-purified antibody; also called V18; IGN18) VH: EVQLLESGGGLVQPGGSLRLSCAASGFTFSNYYMHWVRQAPGKGLEWVSSISARSSYLYYADSVKGRFTISRDNSKNTLYLQMNSLRAEDTAVYYCARLATRHVAFDIWGQGTLVTVSS VL: QSVLTQPPSASGTPGQRVTISCSGSSSNIGNNAVNWYQQLPGTAPKLLIYASNMRRPGVPDRFSGSKSGTSASLAISGLRSEDEADYYCEAWDDSQKAVVFGGGTKLTVL", "units.of.measure": "%", "recorded.number": 101}
{"binder": "A10-1C04 (IgG) (antibody, V domains shown, tested as neutral-purified and as alkaline-purified antibody; also called V1; IGN1) VH: EVQLLESGGGLVQPGGSLRLSCAASGFTFSDYYMNWVRQAPGKGLEWVSSISRYSSYIYYADSVKGRFTISRDNSKNTLYLQMNSLRAEDTAVYYCARDIGGMDVWGQGTLVTVSS VL: QSVLTQPPSASGTPGQRVTISCTGSSSNIGAVYDVHWYQQLPGTAPKLLIYRNNQRPSGVPDRFSGSKSGTSASLAISGLRSEDEADYYCQTYDSSRWVFGGGTKLTVL", "units.of.measure": "%", "recorded.number": 99.3}

Q: Query (binder): A25-2C02 (IgG) (antibody, V domains shown, tested as neutral-purified and as alkaline-purified antibody; also called V15; IGN15) VH: EVQLLESGGGLVQPGGSLRLSCAASGFTFSNYYMHWVRQAPGKGLEWVSSISARSSYIYYADSVKGRFTISRDNSKNTLYLQMNSLRAEDTAVYYCARLATRNNAFDIWGQGTLVTVSS VL: QSVLTQPPSASGTPGQRVTISCSGSSSNIGRNAVNWYQQLPGTAPKLLIYASNMRVSGVPDRFSGSKSGTSASLAISGLRSEDEADYYCWAWDDSQKVGVFGGGTKLTVL ; field requested: % Active IgG (antigen binding activity after preservation at 40 C for 4 W)
Ans: 100
